B1: tRNA (parent)
chain: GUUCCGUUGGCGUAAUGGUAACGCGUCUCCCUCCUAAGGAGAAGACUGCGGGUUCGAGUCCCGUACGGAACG

# Variants of: B1
# test: yeast fitness, log relative to wild type (ln ratio); higher = fitter; tRNA-Arg(CCU), competitive growth, 37 C, 1 M NaCl
Would you mind sorting the entries by yeast fitness (ln) according to these classes? LOW: < -0.3; MEDIUM: ≥ -0.3 and < -0.1; HIGH: ≥ -0.1

> print(dat)
                          variant.annotation   class
 1                         U2G G6A C46U C66A    HIGH
 2                  C27U A43C C46U A69G C71U  MEDIUM
 3     G1A G6U C27U A43C C46U C66U A69G A70U     LOW
 4                   U2C C27U C66U A69G A70U  MEDIUM
 5              U2G A43C C46U A69G A70U C71U     LOW
 6               U2G G6A A43C C46U C66U C71U  MEDIUM
 7                    U2C G6U C46U C66U A70U    HIGH
 8               U2G G6U A43C C66A A69G A70G  MEDIUM
 9                         G1A G6U C27U C71U  MEDIUM
10                   U2C A43C C66U A70U C71U     LOW
11              G6U C27U A43C C66A A69G A70U  MEDIUM
12                         G1A U2G A43C A70G  MEDIUM
13          G1A G6A C27U A43C C46U A69G C71U  MEDIUM
14                   G1A C46U C66A A69G A70G  MEDIUM
15                        U2C C27U A69G A70G    HIGH
16                    U2C G6U A43C C66A A70G    HIGH
17               U2G G6A A43C C46U A70U C71U  MEDIUM
18               G1A U2G C27U A43C C46U A70U  MEDIUM
19                    G1A G6A C27U C66A C71U  MEDIUM
20                   G6U C27U A43C C46U A69G  MEDIUM
21                        G6U A43C C66A A69G    HIGH
22                              G1A U2C A43C    HIGH
23               U2G G6A C46U C66U A69G A70G     LOW
24           G1A U2G G6U C27U A43C C66U A70U     LOW
25              G6U C27U A43C C66U A69G A70U     LOW
26                                  G6U A69G  MEDIUM
27  U2C G6U C27U A43C C46U C66A A69G A70U C71U  MEDIUM
28      G1A U2G G6A C46U C66A A69G A70G C71U     LOW
29              U2C C27U C66A A69G A70G C71U  MEDIUM
30          G1A G6U C27U A43C C66A A70G C71U     LOW
31                    U2C G6U C46U A70G C71U    HIGH
32      G1A U2G G6U C27U A43C C66A A70U C71U     LOW
33                     G1A U2C G6U C66A A70U  MEDIUM
34             C27U A43C C46U C66A A69G C71U     LOW
35                        U2G A43C C46U C66U  MEDIUM
36               G1A U2G C46U A69G A70G C71U     LOW
37                   G6A C27U C46U C66U A69G    HIGH
38              U2G C27U A43C C46U A69G C71U  MEDIUM
39                    G1A U2G A69G A70U C71U    HIGH
40                         U2G G6U C66U A70G  MEDIUM
41                    U2C G6U C46U A70U C71U    HIGH
42                        G1A A43C C66A A70U  MEDIUM
43                          G1A U2G G6A C27U    HIGH
